Test system: HEK-293T
Experiment: Multiplex assay against HEK293T
Assay type: toxicity, cell-based
Settings: human, 48 h, 1 µM, compound concentration 1 uM, replicate 2
What Population Pyknosed Nuclei (%) was measured for each of the following?
One number for each entry, in %.

compound	Population Pyknosed Nuclei (%)
O=S(=O)(c1ccccc1)c1cnc2c(N3CCNCC3)cccc2c1 [INTEPIRDINE]	6
CC(C)(C)c1ccc(S(=O)(=O)Nc2ccc(Cl)cc2C(=O)c2cc[n+]([O-])cc2)cc1	4
CCOc1c2c(c(OCC)c3ncccc13)CN(c1ccc(CS(=O)(=O)NC(=O)Cc3ccccc3OC)cc1C)C2=O	5
CCCN1CCC[C@@H]2Cc3n[nH]cc3C[C@H]21.Cl [QUINPIROLE HYDROCHLORIDE]	4
O=C(NCCO)c1cccc(-c2cc(Nc3ccc(OC(F)(F)F)cc3)ncn2)c1	10
Cc1ccc(C(C)(O)c2nc3ccccc3s2)c(C)c1 (stereo not given)	8

Hello, I would appreciate it if you could give Population Pyknosed Nuclei (%) for each entry below.
1. CNC[C@H](O)c1ccc(O)c(O)c1 [EPINEPHRINE]
2. CSc1ccccc1N1CCN(CCCCCC(=O)NC2CCCc3ccccc32)CC1.Cl (stereo not given)
3. N[C@@]1(C(=O)O)CO[C@H]2[C@H](C(=O)O)[C@H]21
4. CN(C)c1ccnc2sc3c(=O)n(N4CCCCCC4)cnc3c12

Result:
8
13
7
6
